system: Puccinia triticina; assay: Wheat brown rust (PUCCRT), disease control on wheat seedlings; type: in vivo; conditions: 72 h, high volume application at 100 ppm, 3 Day Curative, read-out: PUCCRT disease control, 3DC, HV activity
Reported endpoint: pest or weed control at 100 ppm

Compound	pest or weed control at 100 ppm
COc1ccnc(C(=O)N[C@@H](C)C(=O)O[C@@H](C)[C@H](c2ccc(OC(C)C)cc2)C(C)C)c1O	< 80%
COc1ccnc(C(=O)N[C@@H](C)C(=O)O[C@@H](C)[C@H](c2ccc(F)cc2C)C(C)C)c1O	> 80%
CC[C@H](C)[C@H](NC(=O)c1nccc(OC)c1O)C(=O)O[C@@H](C)[C@H](c1ccc(F)cc1C)C(C)C	< 80%

In: Provide one value: measured pest or weed control at 100 ppm of `COc1ccnc(C(=O)N[C@@H](C)C(=O)O[C@@H](C)[C@H](c2cc(F)ccc2C)C(C)C)c1O`
Out: > 80%

In: Provide one value: measured pest or weed control at 100 ppm of `COc1ccc([C@H](C(C)C)[C@H](C)OC(=O)[C@H](C)NC(=O)c2nccc(OC)c2O)cc1`
Out: > 80%

In: Provide one value: measured pest or weed control at 100 ppm of CCC(C)[C@H](c1ccc(F)cc1C)[C@H](C)OC(=O)[C@H](C)NC(=O)c1nccc(OC)c1O (stereo partly shown)
Out: < 0%

In: Provide one value: measured pest or weed control at 100 ppm of `COc1ccnc(C(=O)N[C@@H](C)C(=O)O[C@@H](C)[C@@H](c2ccc(C)cc2C)C2CCCCC2)c1O`
Out: < 80%

----------
tested on: Puccinia triticina; assay: Wheat brown rust (PUCCRT), disease control on wheat seedlings; type: in vivo; settings: 72 h, high volume application at 100 ppm, 3 Day Curative, read-out: PUCCRT disease control, 3DC, HV activity
Reported endpoint: pest or weed control at 100 ppm

Examples from the recorded data:
Compound	Assayed target	Reported endpoint	Reported measurement
COc1ccnc(C(=O)N[C@@H](C)C(=O)O[C@@H](C)[C@@H](c2ccc(Cl)cc2Cl)C(C)C)c1O	Puccinia triticina	pest or weed control at 100 ppm	< 80%
COc1ccnc(C(=O)N[C@H](C(=O)O[C@@H](C)[C@H](c2ccc(F)cc2C)C(C)C)C(C)C)c1O	Puccinia triticina	pest or weed control at 100 ppm	> 80%
COc1cc(F)ccc1[C@H](C1CCCC1)[C@H](C)OC(=O)[C@H](C)NC(=O)c1nccc(OC)c1O	Puccinia triticina	pest or weed control at 100 ppm	> 80%
COc1cc(F)ccc1[C@@H](C1CCCC1)[C@H](C)OC(=O)[C@H](C)NC(=O)c1nccc(OC)c1O	Puccinia triticina	pest or weed control at 100 ppm	> 80%
COc1ccnc(C(=O)N[C@@H](C)C(=O)O[C@@H](C)[C@H](c2cc(C)ccc2C)C(C)C)c1O	Puccinia triticina	pest or weed control at 100 ppm	> 80%

In: Name the value of pest or weed control at 100 ppm reported for `COc1ccnc(C(=S)N[C@@H](C)C(=O)O[C@@H](C)[C@@H](c2ccccc2)C2CCCC2)c1O` when tested on Puccinia triticina.
Out: < 0%

In: Name the value of pest or weed control at 100 ppm reported for CCC(C)[C@H](c1ccc(C)cc1C)[C@H](C)OC(=O)[C@H](C)NC(=O)c1nccc(OC)c1O (some centres unmarked) when tested on Puccinia triticina.
Out: < 80%

In: Name the value of pest or weed control at 100 ppm reported for `COc1cc[n+]([O-])c(C(=O)N[C@@H](C)C(=O)O[C@@H](C)[C@@H](c2ccc(C)cc2C)C(C)C)c1O` when tested on Puccinia triticina.
Out: < 0%
